Target: T1, human activated protein C (human, UniProt P04070 43-197; P04070 212-461)
T1 construct: also called human aPC; human APC
Test: SPR (Biacore), 1:1 binding model

{"columns": ["Binder", "koff (s⁻¹)"],
 "data": [
  ["Hu1573-1 (antibody, V domains shown, Humanized IgG, human gamma 1 / kappa constant regions by vectors pCP-hCg1 and pCP-hck; also called H1573VH.1 + H1573Vk.2C) VH: EVQLVESGGGLVQPGGSLRLSCAASGFTFSNYYLNWVRQAPGKGLEWVGDIRLKSNNYEKHYAESVKGRFTISRDDSKNSLYLQMNSLKTEDTAVYYCAREGDYFDYWGQGTTVTVSS VL: DIVLTQTPLSLSVTPGQPASISCRASESVDSFGATFMHWYLQKPGQPPQLLIYLASNLESGVPDRFSGSGSRTDFTLKISRVEAEDVGVYYCQQNNEDPYTFGQGTKLEIKR", 0.00554],
  ["1573 Chimeric (antibody, V domains shown, IgG; also called chimera 1573; 1573VH (chimeric) + 1573Vk (chimeric)) VH: EVKLEESGGGLVQPGGSMKLSCVASGFTFSNYYLNWVRQSPEKGLEWVADIRLKSNNYEKHYAESVKGRFTISRDDSKSSVYLQMNNLRAEDTGIYYCIREGDYFDYWGQGTTLTVSS VL: NIVLTQSPASLAVSLGQRATISCRASESVDSFGATFMHWYQQKPGQPPKLLIYLASNLESGVPARFSGSGSRTDFTLTIDPVEADDAATYYCQQNNEDPYTFGGGTKLEIKR", 0.00811],
  ["Hu1573-3 (antibody, V domains shown, Humanized IgG, human gamma 1 / kappa constant regions by vectors pCP-hCg1 and pCP-hck; also called H1573VH.1B + H1573Vk.2) VH: EVQLVESGGGLVQPGGSLRLSCAASGFTFSNYYLNWVRQAPGKGLEWVGDIRLKSNNYEKHYAESVKGRFTISRDDSKNSVYLQMNSLKTEDTAVYYCIREGDYFDYWGQGTTVTVSS VL: DIVMTQTPLSLSVTPGQPASISCRASESVDSFGATFMHWYLQKPGQPPQLLIYLASNLESGVPDRFSGSGSGTDFTLKISRVEAEDVGVYYCQQNNEDPYTFGQGTKLEIKR", 0.00818],
  ["Hu1573-8 (antibody, V domains shown, Humanized IgG, human gamma 1 / kappa constant regions by vectors pCP-hCg1 and pCP-hck; also called H1573VH.1C + H1573Vk.2B) VH: EVQLVESGGGLVQPGGSLRLSCAASGFTFSNYYLNWVRQAPGKGLEWVADIRLKSNNYEKHYAESVKGRFTISRDDSKNSLYLQMNSLKTEDTAVYYCIREGDYFDYWGQGTTVTVSS VL: DIVMTQTPLSLSVTPGQPASISCRASESVDSFGATFMHWYLQKPGQPPQLLIYLASNLESGVPDRFSGSGSRTDFTLKISRVEAEDVGVYYCQQNNEDPYTFGQGTKLEIKR", 0.006],
  ["Hu1573-10 (antibody, V domains shown, Humanized IgG, human gamma 1 / kappa constant regions by vectors pCP-hCg1 and pCP-hck; also called H1573VH.1D + H1573Vk.2A) VH: EVQLVESGGGLVQPGGSLRLSCAASGFTFSNYYLNWVRQAPGKGLEWVGDIRLKSNNYEKHYAESVKGRFTISRDDSKSSLYLQMNSLKTEDTAVYYCIREGDYFDYWGQGTTVTVSS VL: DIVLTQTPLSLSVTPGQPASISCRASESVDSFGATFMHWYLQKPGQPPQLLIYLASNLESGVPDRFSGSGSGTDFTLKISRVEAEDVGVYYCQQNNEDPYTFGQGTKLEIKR", 0.00636]
]}
